measurementTarget: T1, NLpoly11S
T1 chain: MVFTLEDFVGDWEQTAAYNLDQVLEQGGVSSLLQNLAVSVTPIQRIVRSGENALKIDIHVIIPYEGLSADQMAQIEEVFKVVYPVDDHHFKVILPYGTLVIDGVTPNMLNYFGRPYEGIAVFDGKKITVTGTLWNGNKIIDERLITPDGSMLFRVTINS
procedureSummary: luminescence complementation titration, one-site specific binding fit
Category scheme (Kd): low end = under 2000 nM, middle = from 2000 nM up to 8000 nM, high end = 8000 nM and over

Observe how each entry below is paired with its result.
{"columns": ["binder", "discreteLabel"],
 "data": [
  ["VTGYRLFQQAL (modifications not checked) [array2.41]", "middle"],
  ["VEGYRLFKQIL (modifications not checked) [array2.85]", "high end"],
  ["VEGYRLFKKES (modifications not checked) [array2.57]", "low end"],
  ["VEGYRLFQKAS (modifications not checked) [array2.65]", "low end"],
  ["VEGYRLFQKIL (modifications not checked) [array2.91]", "middle"]
]}

Would you mind sorting VTGYRLFKQES (modifications not checked) [array2.6] into the appropriate category?
low end

Category of VEGYRLFQQEL (modifications not checked) [array2.96] :
high end

Hey, which category is VTGYRLFKKAS (modifications not checked) [array2.2] in, do you know?
low end
